# Target entity: T1, recombinant, soluble human ASGR-1 (human, UniProt P07306 62-291)
# T1 construct: biotinylated in the binning assay; also called soluble huASGR-1; Soluble ASGR-1 (Amgen)
# T1 sequence: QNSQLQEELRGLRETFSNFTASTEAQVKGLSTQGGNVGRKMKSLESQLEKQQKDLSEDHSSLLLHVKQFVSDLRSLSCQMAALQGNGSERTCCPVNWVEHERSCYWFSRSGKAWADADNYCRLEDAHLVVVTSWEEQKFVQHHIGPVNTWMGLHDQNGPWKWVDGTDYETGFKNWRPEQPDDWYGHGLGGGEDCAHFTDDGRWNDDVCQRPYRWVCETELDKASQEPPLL
# Measurement notes: Octet BLI dissociation, pH 7.4 minus calcium
Experimental readout: % Change Compared to pH 7.4 + Calcium (%)
Respond with the bare value in %.

Solved entries (count: 3):
Binder: 56E5 (antibody, V domains shown, hybridoma mAb) VH: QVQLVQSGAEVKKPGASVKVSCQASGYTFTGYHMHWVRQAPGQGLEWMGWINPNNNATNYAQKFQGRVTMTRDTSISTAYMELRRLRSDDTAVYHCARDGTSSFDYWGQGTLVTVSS VL: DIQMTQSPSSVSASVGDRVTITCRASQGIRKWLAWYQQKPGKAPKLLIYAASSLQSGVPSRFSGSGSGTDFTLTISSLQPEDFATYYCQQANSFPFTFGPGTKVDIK
% Change Compared to pH 7.4 + Calcium (%): 1

Binder: 64G12 (antibody, V domains shown, hybridoma mAb) VH: EVQLLESGGGLVQPGGSLRLSCAASGFTFSSNAMSWVRQAPGKGLEWVSVISGSGGSTYYADSVKGRFTISRDNSKNTLYLQMNSLRAEDTALYYCAKRNYDDAFDIWGQGTMVTVSS VL: DIQMTQSPSSVSASVGDRVTITCRASQNITTWLAWYQQKPGKAPKLLISAASSLQSGVPSRFSGSGSGTDFTLTISSLQPEDFATYICQQANSFPFTFGPGTKLDIK
% Change Compared to pH 7.4 + Calcium (%): 24

Binder: 4B1 (antibody, V domains shown, hybridoma mAb) VH: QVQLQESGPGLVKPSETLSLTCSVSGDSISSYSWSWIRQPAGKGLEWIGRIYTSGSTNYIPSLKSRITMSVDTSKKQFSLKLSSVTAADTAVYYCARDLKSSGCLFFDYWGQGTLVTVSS VL: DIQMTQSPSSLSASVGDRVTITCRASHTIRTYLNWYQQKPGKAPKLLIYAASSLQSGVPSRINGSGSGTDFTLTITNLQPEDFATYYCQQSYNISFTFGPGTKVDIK
% Change Compared to pH 7.4 + Calcium (%): 6

Q. Reported % Change Compared to pH 7.4 + Calcium, binder 32D6 (antibody, V domains shown, hybridoma mAb) VH: QVQLVESGGGVVQPGRSLRLSCAASGFTFSSYGMHWVRQAPGKGLEWVTVIWHDGSNAYYADSVKGRFTISRDNSKNTLYLQMNSLRAEDTAVYYCARENSSSYYFDYWGQGTLVTVSS VL: DIQMTQSPSSLSTSVGDRVTITCRASQNIISYLNWYQQKPGKAPKLLMYVASRLQSGVPSRFSGSGSGTDFTLTISSLQAEDFATYYCQQSYSTPYTFGGGTKVAIK : ____
A. 26

Q. % Change Compared to pH 7.4 + Calcium for 65F10 (antibody, V domains shown, hybridoma mAb) VH: QVQLVQSGAEVKKPGASVKVSCKASGYTFTGYHMHWVRQAPGQGLEWMGWINPNNGGTSYAQKFQDRVNMTRDTSISTAYMELSRLRSDDTAVYYCARDSRSSWDYWGQGTLVTVSS VL: DIQMTQSPSSVSASVGDRVTITCRGGQGISTWLAWYQQKPGKAPKLLIYAASILQSGVPSRFRGRGSGTDFTLTISSLQPEDFATYYCQQGNIFPFTFGRGTKVDIK ?
A. 25

Value source: patent US20190248902A1
